# Tested on: LXFL 529
# MEASUREMENT_DESCRIPTION: NCI tumour cell line growth inhibition, 48 h
The source made the active and inactive calls. No stated cut-off is given here; in the data, active = GI50 up to about 1.1 µM and inactive = higher.
Allowed answers: YES for active, NO for inactive

INPUT: Could you check what this test reported for CCCCC(C(=O)C(=O)Nc1ccccc1CC)C(=O)C(C)C (stereo not given) ?
OUTPUT: NO

INPUT: Could you check what this test reported for CN1C(=O)C2C=CC1C1CCC2N(C)C1=O (stereo not given) ?
OUTPUT: NO

INPUT: Could you check what this test reported for CC(C)CC1CC2C(=O)N(c3ccccc3)C(=O)C2c2[nH]c3ccccc3c21 (stereo not given) ?
OUTPUT: NO

INPUT: Could you check what this test reported for CC1=C(O)C(=O)C2C(=O)C1C(C)C2c1ccc(Cl)cc1 (stereo not given) ?
OUTPUT: NO

INPUT: Could you check what this test reported for "CC(C)(C)C1=CC(=C(P(=O)(O)O)P(=O)(O)O)C=C(C(C)(C)C)C1=O" ?
OUTPUT: NO

INPUT: Could you check what this test reported for "Cc1cc(=O)cc2sc3c(C)cccc3nc1-2" ?
OUTPUT: NO

INPUT: Could you check what this test reported for Nc1nc(N)c2nc(CNc3ccc(C(=O)NC(CCCNC(=O)c4ccccc4C(=O)O)C(=O)O)cc3)cnc2n1 (stereo not given) ?
OUTPUT: YES

INPUT: Could you check what this test reported for "[N-]=[N+]=Nc1ccccc1-[n+]1noc([O-])c1Br" ?
OUTPUT: NO

INPUT: Could you check what this test reported for COC1CCC(=C2C(=O)OC(C)(C)OC2=O)N1 (stereo not given) ?
OUTPUT: NO

INPUT: Could you check what this test reported for "O=CN/C=C/c1ccccc1" ?
OUTPUT: NO

INPUT: Could you check what this test reported for COc1cc(C(C)O)c[n+](Cc2ccccc2)c1 (stereo not given) ?
OUTPUT: NO

INPUT: Could you check what this test reported for "Cc1c(C(=O)/C=C/C=C/c2ccccc2)[n+]([O-])c2ccccc2[n+]1[O-]" ?
OUTPUT: NO

INPUT: Could you check what this test reported for CCC(C)CN1C(=O)NC(C)(Cc2ccccc2)C1=O (stereo not given) ?
OUTPUT: NO

INPUT: Could you check what this test reported for "CN(/N=C\c1ccnc2ccccc12)c1ccc([N+](=O)[O-])cc1" ?
OUTPUT: NO

INPUT: Could you check what this test reported for CC1=NN(C(=O)c2ccc([N+](=O)[O-])cc2)C(=O)C1/N=N/c1ccccc1C(=O)O (stereo not given) ?
OUTPUT: NO

INPUT: Could you check what this test reported for "Nc1ccccc1/C(O)=C1/CCOC1=O" ?
OUTPUT: NO

INPUT: Could you check what this test reported for "COC(=O)c1c(C(=O)OC)c(-c2ccccc2)n(-c2ccccc2)c(=O)c1-c1ccccc1" ?
OUTPUT: NO

INPUT: Could you check what this test reported for "O=C1c2ccccc2C(=O)c2c1ccc1c3ccccc3n(-c3ccccc3)c21" ?
OUTPUT: NO

INPUT: Could you check what this test reported for "COc1ccc(CN(CCN(C)C)c2ccccn2)cc1.Cn1c(=O)c2[nH]c(Br)nc2n(C)c1=O" ?
OUTPUT: NO

INPUT: Could you check what this test reported for COc1cc2c3cc1Oc1c(OC)c(OC)cc4c1C(Cc1ccc(cc1)Oc1cc(ccc1O)CC3N(C)CC2)N(C)CC4 (stereo not given) ?
OUTPUT: NO

----------
# Test system: SK-OV-3
# MEASUREMENT_DESCRIPTION: NCI tumour cell line growth inhibition, 48 h
Activity calls are given as the source filed them. Cut-off read from the data, not from the text of the source: active = GI50 up to about 1.1 µM and inactive = higher.
MEASUREMENT_KIND: GI50

INPUT: Would you please give the reported GI50 of "CCc1cc(=O)n(/C(C)=C/c2ccccc2)n1C" with SK-OV-3?
OUTPUT: > 100 µM (inactive)

INPUT: Would you please give the reported GI50 of O=C1CS(=O)(=O)C(c2cccc(Oc3ccccc3)c2)N1c1ccc(Cl)cc1 (stereo unspecified) with SK-OV-3?
OUTPUT: 49 µM (inactive)

INPUT: Would you please give the reported GI50 of "O=S1(=O)c2ccccc2NC(=S)N1c1ccccc1" with SK-OV-3?
OUTPUT: > 100 µM (inactive)

INPUT: Would you please give the reported GI50 of "CNc1ccc(Cl)cc1C(=O)N1CCC[C@H]1CO" with SK-OV-3?
OUTPUT: > 100 µM (inactive)

INPUT: Would you please give the reported GI50 of CCCOC(=O)C1C2CCC(O2)C1C(=O)O (stereo unspecified) with SK-OV-3?
OUTPUT: 61 µM (inactive)

INPUT: Would you please give the reported GI50 of "CCCCCCCC/C=C\CCCCCCCCCCCC(=O)O" with SK-OV-3?
OUTPUT: > 85.9 µM (inactive)

INPUT: Would you please give the reported GI50 of CCC1CCN=C(Cn2cc(C)c(=O)[nH]c2=O)N1 (stereo unspecified) with SK-OV-3?
OUTPUT: > 100 µM (inactive)

INPUT: Would you please give the reported GI50 of "Cc1cccc(/C=N/N=C(\N)NO)n1" with SK-OV-3?
OUTPUT: 19.9 µM (inactive)

INPUT: Would you please give the reported GI50 of "CC(C)n1c(=O)c2nn3c(=O)n(C(C)C)c(=O)c3nn2c1=O" with SK-OV-3?
OUTPUT: > 100 µM (inactive)

INPUT: Would you please give the reported GI50 of "C[C@@]12C[C@@H](c3ccccc3O1)N1CCCCSC1=N2" with SK-OV-3?
OUTPUT: > 100 µM (inactive)

INPUT: Would you please give the reported GI50 of "O=C1Nc2ccc(Br)cc2/C1=C/C(=O)c1ccccc1" with SK-OV-3?
OUTPUT: 17.6 µM (inactive)

----------
# Tested on: TK-10
# MEASUREMENT_DESCRIPTION: NCI tumour cell line growth inhibition, 48 h
The source made the active and inactive calls. Rule as the data show it: active = GI50 up to about 1.1 µM and inactive = higher.
Field: GI50. Provide a value for each of the compounds that follow.

INPUT: Assign GI50 to the following record: O=c1[nH]c(N/N=C\C(=N/Nc2nc3ccccc3c(=O)[nH]2)C(O)C(O)C(O)CO)nc2ccccc12 (stereo unspecified)
OUTPUT: > 100 µM (inactive)

INPUT: Assign GI50 to the following record: Cc1cc2c(cc1C)N1C(Cl)=C3CCCCC3=C(C#N)C1N2 (stereo unspecified)
OUTPUT: 5.65 µM (inactive)

INPUT: Assign GI50 to the following record: CCOCCOC(=O)C1CCC(=O)N1CN(C(C)=O)c1cc(OC)ccc1OC (stereo unspecified)
OUTPUT: > 100 µM (inactive)

INPUT: Assign GI50 to the following record: "O=[N+]([O-])C=C1c2ccccc2-c2ccccc21"
OUTPUT: 18.3 µM (inactive)

INPUT: Assign GI50 to the following record: O=C(O)C[S+]([O-])c1ccc2c3c(cccc13)C(=O)c1ccccc1-2 (stereo unspecified)
OUTPUT: > 100 µM (inactive)

INPUT: Assign GI50 to the following record: C1CCC(OC2CSC2)OC1 (stereo unspecified)
OUTPUT: > 100 µM (inactive)

----------
# Tested on: CAKI-1
# MEASUREMENT_DESCRIPTION: NCI tumour cell line growth inhibition, 48 h
Calls of active or inactive are those of the source. Rule as the data show it: active = GI50 up to about 1.1 µM and inactive = higher.
Allowed answers: 1 = active, -1 = inactive

INPUT: Could you check what this test reported for "NNC(=O)c1c(-c2cccnc2)cnc2ccccc12" ?
OUTPUT: -1

INPUT: Could you check what this test reported for COc1cc(C(C)O)c[n+](Cc2ccccc2)c1 (configuration not stated) ?
OUTPUT: -1

INPUT: Could you check what this test reported for "Cc1ccc(S(=O)(=O)n2cc(-c3cnc(N)c(Br)n3)c3ccccc32)cc1" ?
OUTPUT: -1

INPUT: Could you check what this test reported for CC[C@@]1(O)C(=O)OCc2c1cc1n(c2=O)Cc2c-1nc1ccccc1c2/C=N\NC(=O)C(N)Cc1ccc(O)cc1 (some centres not stated) ?
OUTPUT: 1

INPUT: Could you check what this test reported for CCO[C@H]1O[C@@H]2OC3(C)CCC4[C@H](C)CCC([C@H]1C)[C@]42OO3 (some centres not stated) ?
OUTPUT: -1

INPUT: Could you check what this test reported for Cc1cc2c(cc1C)N1C(Cl)=C3CCCCC3=C(C#N)C1N2 (configuration not stated) ?
OUTPUT: -1

INPUT: Could you check what this test reported for CC1=C(O)C(=O)C2C(=O)C1C(C)C2c1ccc(Cl)cc1 (configuration not stated) ?
OUTPUT: -1

INPUT: Could you check what this test reported for "OCc1cn(Cc2ccccc2)c2ccccc12" ?
OUTPUT: 1

INPUT: Could you check what this test reported for CC(C)(C)[Si](C)(C)OC1C(=O)C[C@H]2CCCC[C@@H]12 (some centres not stated) ?
OUTPUT: -1

INPUT: Could you check what this test reported for "COc1ccc2nc(-c3ccc(OC(=O)N(C)C)cc3)cn2c1" ?
OUTPUT: -1

INPUT: Could you check what this test reported for "Oc1ncnc2c1nnn2CCCn1nnc2c(O)ncnc21" ?
OUTPUT: -1

INPUT: Could you check what this test reported for "O=C(CSc1n[nH]c(=O)[nH]c1=O)NNC(=O)c1cccc2nc3ccccc3nc12" ?
OUTPUT: -1

INPUT: Could you check what this test reported for CCCOC(=O)C1C2CCC(O2)C1C(=O)O (configuration not stated) ?
OUTPUT: -1

INPUT: Could you check what this test reported for "COc1ccc(/C(Cl)=C(\C=O)c2ccc([N+](=O)[O-])cc2)cc1" ?
OUTPUT: -1

INPUT: Could you check what this test reported for Cc1cn(C2CC(O)C(Cn3nncc3Cn3ccc(=O)[nH]c3=O)O2)c(=O)[nH]c1=O (configuration not stated) ?
OUTPUT: -1

INPUT: Could you check what this test reported for "CCOC(=O)NC(=O)c1cn(CCOC(=O)NCCCCCCNC(=O)OCCn2cc(C(=O)NC(=O)OCC)c(=O)[nH]c2=O)c(=O)[nH]c1=O" ?
OUTPUT: -1

INPUT: Could you check what this test reported for "COc1cc(OC)nc(NC(=O)NS(=O)(=O)c2cccc3ncn(C)c(=O)c23)n1" ?
OUTPUT: -1

INPUT: Could you check what this test reported for "CC1=C(C)Cc2c(O)ccc(O)c2C1" ?
OUTPUT: -1

INPUT: Could you check what this test reported for "C=CCc1cccc2cc(C(=O)Nc3nc(C45CC6CC(CC(C6)C4)C5)cs3)c(=O)oc12" ?
OUTPUT: -1

INPUT: Could you check what this test reported for "O=C(O)/C=C\C(=O)Nc1ccc2c(c1)-c1ccccc1C2" ?
OUTPUT: -1

INPUT: Could you check what this test reported for O=C(CC1Sc2ccccc2NC1=O)Nc1cccc(Cl)c1 (configuration not stated) ?
OUTPUT: -1

INPUT: Could you check what this test reported for "O=C(O)/C=C/c1c[nH]c(=O)[nH]c1=O" ?
OUTPUT: -1
